Several reports have described pIC50 for IRAK4 (Homo sapiens (Human), UniProt Q9NWZ3); a selection of those results is presented here.
For clarity, pIC50 is expressed as the negative log10 of concentration in mol/L.

Sample answers from the record:
>>> numeric_value("CN(C)[C@H]1CC[C@H](Nc2ncnc3ccc(-c4cnc5cc[nH]c5c4)cc23)CC1")
6.91
>>> numeric_value("COC(=O)N[C@H]1CC[C@H](NC(=O)c2cnc(-c3cnn4cc(Cl)cnc34)cc2Nc2cnn(C)c2)CC1")
7.85
>>> numeric_value("CC[C@H](O)Cn1cc(-c2cnc(-n3ncc4cc(C#N)cnc43)cc2NC(C)C)nn1")
8.22
>>> numeric_value("Cn1cc(NC(=O)c2ccc3ccc(N4C5CCC4CNC5)nn23)c(C(F)F)n1")
9.30
>>> numeric_value("CCn1cc(-c2cnc(-n3cnc4cc(C#N)cnc43)cc2NC(C)C)nn1")
8.00

Proceeding to the next compound to report its pIC50.
[in] Endpoint output: pIC50 of c1nc(N[C@H]2CC[C@H](N3CCOCC3)CC2)c2cc(C3CC3)ccc2n1 . Value?
[out] 8.30
